# assay: Oral bioavailability in rat at 1 mg/kg
# Type: ADME, organism-based
# details: in vivo
experimental readout: bioavailability (%)
Kindly provide the numeric value in % only, without the unit symbol.

-- ask Output measured bioavailability for this item: Cc1ccc(-c2c(C)nc(NC(=O)NC3CCCCC3)c(C)c2C(OC(C)(C)C)C(=O)O)cc1C (stereo unspecified)
-- reply 9.2

---

# assay: Cytotoxicity against human MT4 cells by MTT assay
# Type: cell-based
I'd appreciate it if you could supply CC50 values for the items below.
Kindly provide the numeric value in µM only, without the unit symbol.

-- ask Output measured CC50 for this item: Cc1ccc(-c2c(C)nc(NC(=O)NC3CCOCC3)c(C)c2C(OC(C)(C)C)C(=O)O)cc1C (configuration not stated)
-- reply 29

-- ask Output measured CC50 for this item: Cc1ccc(-c2c(C)nc(C(=O)NCc3ccccc3)c(C)c2C(OC(C)(C)C)C(=O)O)cc1C (configuration not stated)
-- reply 54

-- ask Output measured CC50 for this item: Cc1ccc(-c2c(C)nc(C(=O)N(C)Cc3ccccc3)c(C)c2C(OC(C)(C)C)C(=O)O)cc1C (configuration not stated)
-- reply 77

-- ask Output measured CC50 for this item: Cc1nc(NC(=O)NC2CCCCC2)c(C)c(C(OC(C)(C)C)C(=O)O)c1-c1ccc(C(F)(F)F)cc1 (configuration not stated)
-- reply 9.8

-- ask Output measured CC50 for this item: Cc1ccc(-c2c(C)nc(NS(=O)(=O)c3cccc4ccccc34)c(C)c2C(OC(C)(C)C)C(=O)O)cc1C (configuration not stated)
-- reply 16

-- ask Output measured CC50 for this item: Cc1ccc(-c2c(C)nc(Nc3nc4ccccc4n3C)c(C)c2C(OC(C)(C)C)C(=O)O)cc1C (configuration not stated)
-- reply 14

-- ask Output measured CC50 for this item: Cc1ccc(-c2c(C)nc(NC(=O)Nc3ccccc3)c(C)c2C(OC(C)(C)C)C(=O)O)cc1C (configuration not stated)
-- reply 9.9

-- ask Output measured CC50 for this item: Cc1nc(NC(=O)NC2CCCCC2)c(C)c(C(OC(C)(C)C)C(=O)O)c1-c1ccc2c(c1)CCCO2 (configuration not stated)
-- reply 17

-- ask Output measured CC50 for this item: COc1ccc(-c2c(C)nc(NC(=O)NC3CCCCC3)c(C)c2C(OC(C)(C)C)C(=O)O)cc1 (configuration not stated)
-- reply 19

-- ask Output measured CC50 for this item: Cc1nc(NC(=O)NC2CCCCC2)c(C)c(C(OC(C)(C)C)C(=O)O)c1-c1ccc2c(c1C)CCCO2 (configuration not stated)
-- reply 11

-- ask Output measured CC50 for this item: Cc1ccc(-c2c(C)nc(NC(=O)NC3CCCCCC3)c(C)c2C(OC(C)(C)C)C(=O)O)cc1C (configuration not stated)
-- reply 7.7

-- ask Output measured CC50 for this item: Cc1ccc(-c2c(C)nc(Nc3nc4ccccc4s3)c(C)c2C(OC(C)(C)C)C(=O)O)cc1C (configuration not stated)
-- reply 6.6

-- ask Output measured CC50 for this item: COc1ccc(Nc2nc(C)c(-c3ccc(C)c(C)c3)c(C(OC(C)(C)C)C(=O)O)c2C)cc1 (configuration not stated)
-- reply 28

-- ask Output measured CC50 for this item: Cc1ccc(-c2c(C)nc(NC(=O)NCc3ccccc3)c(C)c2C(OC(C)(C)C)C(=O)O)cc1C (configuration not stated)
-- reply 17

-- ask Output measured CC50 for this item: Cc1nc(NC(=O)NC2CCCCC2)c(C)c(C(OC(C)(C)C)C(=O)O)c1-c1ccc(Cl)cc1 (configuration not stated)
-- reply 16

-- ask Output measured CC50 for this item: Cc1ccc(-c2c(C)nc(NC(=O)NC3CCCCC3)c(C)c2C(OC(C)(C)C)C(=O)O)cc1C (configuration not stated)
-- reply 7.9
